biological target: SETD2(1434-1711) (Homo sapiens); construct: SETD2 (1434-1711) Assay; catalogue N/A; experiment: SETD2 (1434-1711) assay; assay type: biochemical; conditions: read-out: SETD2 (1434-1711)
Sequence (Q9BYW2 1434-1711): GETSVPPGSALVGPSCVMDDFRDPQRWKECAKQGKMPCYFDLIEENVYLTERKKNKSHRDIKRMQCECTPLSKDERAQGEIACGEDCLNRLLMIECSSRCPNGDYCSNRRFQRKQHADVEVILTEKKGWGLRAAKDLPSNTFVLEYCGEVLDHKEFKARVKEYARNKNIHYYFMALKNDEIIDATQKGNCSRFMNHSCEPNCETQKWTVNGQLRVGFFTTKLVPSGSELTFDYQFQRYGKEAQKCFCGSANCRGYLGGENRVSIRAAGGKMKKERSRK
pIC50: −log10 of the molar value.
QUANTITY KIND: pIC50

COMPOUND	QUANTITY KIND	CENSORING SIGN	DATA VALUE
CC(=O)N1CCN(C2CCCC(NC(=O)c3cc4c(F)ccc(C)c4[nH]3)C2)CC1C (centres unmarked) [compound 968]	pIC50	=	5.72
Cc1ccc(F)c2cc(C(=O)Nc3cccc(-c4ccc(OCCO)cc4)c3)[nH]c12 [compound 231]	pIC50	=	7.00
Cc1ccc(F)c2cc(C(=O)Nc3cc(F)cc(N4CCC(N(C)CCF)C4)c3)[nH]c12 (centres unmarked) [compound 47]	pIC50	=	8.00
Cc1ccc(F)c2cc(C(=O)Nc3cc(F)cc(C4CCN5C(=O)CC[C@@H]5C4)c3)[nH]c12 (some centres unmarked) [compound 114]	pIC50	=	7.22
Cc1cccc2cc(C(=O)NC3CCCc4ccccc43)[nH]c12 (centres unmarked) [compound 753]	pIC50	<	3.70
Cc1ccc(F)c2cc(C(=O)N[C@@H]3CCCC(N4CCN(CC(=O)N(C)C)CC4)C3)[nH]c12 (some centres unmarked) [compound 859]	pIC50	=	6.30
CC(=O)N1CCN([C@@H]2CCC[C@@H](NC(=O)c3cc4c(F)ccc(C)c4[nH]3)C2)[C@H](C)C1 [compound 1091]	pIC50	=	5.24
Cc1cccc2cc(C(=O)Nc3ccc4nc[nH]c(=O)c4c3)[nH]c12 [compound 538]	pIC50	=	6.00
